// provenance: paper PMC10303271

Exercise: state measured NMDA, PDSP raw data, mean for each of the compounds provided.
- Tested on: NMDA
- procedure.text: PDSP primary binding NMDA
- condition.context: primary binding, 10,000 nM; last figure of the line = mean of the 4 before it
Kindly answer with a numeric value in %, unit omitted.

Please report the recorded NMDA, PDSP raw data, mean for C#Cc1ccc2c(c1)C(c1ccccc1F)=N[C@H](C)c1c(C(=S)N(C)C)ncn1-2 [Compound 33] .
43.17

Please report the recorded NMDA, PDSP raw data, mean for CCc1noc(-c2ncn3c2[C@@H](C)N=C(c2ccccc2F)c2cc(C4CC4)ccc2-3)n1 [Compound 46] .
66.04

Please report the recorded NMDA, PDSP raw data, mean for C#Cc1ccc2c(c1)C(c1ccccn1)=N[C@@H](C)c1c(C(=O)N(C)C)ncn1-2 [Compound 31] .
17.3

Please report the recorded NMDA, PDSP raw data, mean for C[C@H]1N=C(c2ccccc2F)c2cc(-c3ccccc3)ccc2-n2cnc(C(=O)N(C)C)c21 [Compound 5] .
43.17

Please report the recorded NMDA, PDSP raw data, mean for CCc1noc(-c2ncn3c2CN=C(c2ccccc2F)c2cc(C4CC4)ccc2-3)n1 [Compound 44] .
20.03

Please report the recorded NMDA, PDSP raw data, mean for CC(C)c1noc(-c2ncn3c2[C@@H](C)N=C(c2ccccc2F)c2cc(Cl)ccc2-3)n1 [Compound 37] .
54.13

Please report the recorded NMDA, PDSP raw data, mean for C[C@H]1N=C(c2ccccc2F)c2cc(Cl)ccc2-n2cnc(-c3nc(C4CC4)no3)c21 [Compound 38] .
65.22

Please report the recorded NMDA, PDSP raw data, mean for C#Cc1ccc2c(c1)C(c1ccccn1)=N[C@@H](C)c1c(C(=O)NC)ncn1-2 [Compound 23] .
89.17
